test system: RARb:RXRa (NR concentration 270 nM, RXRa partner concentration 90 nM); experiment: PBM binding z-score (relative to random genomic background probes); higher = stronger binding; sequences stand for … in GC…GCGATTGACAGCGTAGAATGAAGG
Classes by PBM binding z-score: Low: < 2; Mid: ≥ 2 and < 4; High: ≥ 4

Task: Form: Item = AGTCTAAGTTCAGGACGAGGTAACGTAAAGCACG ; Class = ?
Result: Mid

Task: Form: Item = TCTTGTAGATCAATAGAGGGTAAGAAAGTGCGCT ; Class = ?
Result: Low

Task: Form: Item = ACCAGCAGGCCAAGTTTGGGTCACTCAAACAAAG ; Class = ?
Result: Low

Task: Form: Item = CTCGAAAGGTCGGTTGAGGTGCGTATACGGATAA ; Class = ?
Result: Mid

Task: Form: Item = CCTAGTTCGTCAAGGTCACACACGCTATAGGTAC ; Class = ?
Result: High

Task: Form: Item = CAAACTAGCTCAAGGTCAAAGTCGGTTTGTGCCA ; Class = ?
Result: Mid

Task: Form: Item = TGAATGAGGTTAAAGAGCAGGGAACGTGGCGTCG ; Class = ?
Result: Low

Task: Form: Item = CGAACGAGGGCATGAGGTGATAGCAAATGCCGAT ; Class = ?
Result: Mid

Task: Form: Item = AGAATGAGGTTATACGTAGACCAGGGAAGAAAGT ; Class = ?
Result: Low

Task: Form: Item = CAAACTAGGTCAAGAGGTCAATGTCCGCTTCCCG ; Class = ?
Result: High
